assay: Absorbability through the gut, oral, aqueous and non-aqueous dispersing solvents, plasma concentration in rats (Test Example 5); format: in vivo, Wistar male rats; conditions: rat, plasma, po, 20 mg/kg, 5% (w/v) sucrose fatty acid ester/ODO, oral 20 mg/kg, 3 hrs
measured_parameter: concentration at 3 h (ng/mL)
One number for each entry, in ng/mL.

Endpoint output: concentration at 3 h of O=C(NC(=O)c1ccccc1[N+](=O)[O-])Nc1ccc(Oc2ncc(Br)cn2)c(Cl)c1 [Compound No. 3] . Value?
180

* * *

experiment: Solubility of Compound No. 3 in aqueous cyclodextrin solutions or polyethylene glycol 400 at 25° C. (Test Example 2); assay type: physicochemical; details: aqueous dimethyl β-type cyclodextrin, dimethyl β-type cyclodextrin 500 mg/ml, aqueous
measured_parameter: solubility

Endpoint output: solubility of O=C(NC(=O)c1ccccc1[N+](=O)[O-])Nc1ccc(Oc2ncc(Br)cn2)c(Cl)c1 [Compound No. 3] . Value?
7440 µg/mL

* * *

Experiment: Absorbability through the gut, oral, aqueous and non-aqueous dispersing solvents, plasma concentration in rats (Test Example 5)
Format: in vivo, Wistar male rats
Details: rat, plasma, po, 20 mg/kg, 5% (w/v) Pluronic F31/ODO, oral 20 mg/kg, 1 hr
Procedure: 20 mg of Compound No. 3 was taken into a mortar, and 5 ml of an aqueous solution containing 1.7% of β-type cyclodextrin or 2% or 40% of dimethyl β-type cyclodextrin was added under stirring to obtain a suspension of Compound No. 3. […] After the removal of protein by acetonitrile, Compound No. 3 in the plasma was quantitatively analyzed by a high speed liquid chromatography as shown in Test Example 1. […]
measured_parameter: concentration at 1 h (ng/mL)
Answers are plain numbers, in ng/mL.

Endpoint output: concentration at 1 h of `O=C(NC(=O)c1ccccc1[N+](=O)[O-])Nc1ccc(Oc2ncc(Br)cn2)c(Cl)c1` . Value?
100

* * *

assay: Absorbability through the gut, oral, aqueous and non-aqueous dispersing solvents, plasma concentration in rats (Test Example 5); type: in vivo, Wistar male rats; details: rat, plasma, po, 20 mg/kg, 10% (w/v) hydroxypropyl cellulose, oral 20 mg/kg, 1 hr
measured_parameter: concentration at 1 h (ng/mL)
One number for each entry, in ng/mL.

Endpoint output: concentration at 1 h of `O=C(NC(=O)c1ccccc1[N+](=O)[O-])Nc1ccc(Oc2ncc(Br)cn2)c(Cl)c1` . Value?
50

* * *

assay: Absorbability through the gut, oral, aqueous and non-aqueous dispersing solvents, plasma concentration in rats (Test Example 5); format: in vivo, Wistar male rats; conditions: rat, plasma, po, 20 mg/kg, 2.5% (w/v) sodium salt of carboxymethyl cellulose, oral 20 mg/kg, 24 hrs
measured_parameter: concentration at 24 h (ng/mL)
Give bare numbers, in ng/mL.

Endpoint output: concentration at 24 h of `O=C(NC(=O)c1ccccc1[N+](=O)[O-])Nc1ccc(Oc2ncc(Br)cn2)c(Cl)c1` . Value?
90

* * *

assay: Rectal suppository, plasma concentration in rats (Test Example 6); assay type: in vivo, Wistar male rat; conditions: rat, plasma, 1.8 mg, Witepsol W-35 suppository, 12.5% (w/v) dimethyl β-type cyclodextrin, rectal, 2 hrs
measured_parameter: concentration at 2 h (ng/mL)
Answers are plain numbers, in ng/mL.

Endpoint output: concentration at 2 h of `O=C(NC(=O)c1ccccc1[N+](=O)[O-])Nc1ccc(Oc2ncc(Br)cn2)c(Cl)c1` . Value?
940

* * *

assay: Absorbability through the gut, oral, aqueous and non-aqueous dispersing solvents, plasma concentration in rats (Test Example 5); format: in vivo, Wistar male rats; conditions: rat, plasma, po, 20 mg/kg, 2.5% (w/v) sodium salt of carboxymethyl cellulose, oral 20 mg/kg, 3 hrs
measured_parameter: concentration at 3 h (ng/mL)
Answers are plain numbers, in ng/mL.

Endpoint output: concentration at 3 h of `O=C(NC(=O)c1ccccc1[N+](=O)[O-])Nc1ccc(Oc2ncc(Br)cn2)c(Cl)c1` . Value?
110

* * *

assay: Absorbability through the gut, oral, aqueous and non-aqueous dispersing solvents, plasma concentration in rats (Test Example 5); assay type: in vivo, Wistar male rats; settings: rat, plasma, po, 20 mg/kg, 10% (w/v) Pluronic F68, oral 20 mg/kg, 3 hrs
measured_parameter: concentration at 3 h (µg/mL)
Numbers only, in µg/mL.

Endpoint output: concentration at 3 h of `O=C(NC(=O)c1ccccc1[N+](=O)[O-])Nc1ccc(Oc2ncc(Br)cn2)c(Cl)c1` . Value?
0.19

* * *

test: Absorbability through the gut, oral, aqueous and non-aqueous dispersing solvents, plasma concentration in rats (Test Example 5); assay type: in vivo, Wistar male rats; conditions: rat, plasma, po, 20 mg/kg, 50% (w/v) dimethyl β-type cyclodextrin, oral 20 mg/kg, 5 hrs
measured_parameter: concentration at 5 h (ng/mL)
Give bare numbers, in ng/mL.

Endpoint output: concentration at 5 h of O=C(NC(=O)c1ccccc1[N+](=O)[O-])Nc1ccc(Oc2ncc(Br)cn2)c(Cl)c1 [Compound No. 3] . Value?
490

* * *

assay: Solubility of Compound No. 3 in aqueous cyclodextrin solutions or polyethylene glycol 400 at 25° C. (Test Example 2); assay type: physicochemical; details: aqueous β-type cyclodextrin 17.0 mg/ml, β-type cyclodextrin 17.0 mg/ml, aqueous
measured_parameter: solubility (µg/mL)
Numbers only, in µg/mL.

Endpoint output: solubility of `O=C(NC(=O)c1ccccc1[N+](=O)[O-])Nc1ccc(Oc2ncc(Br)cn2)c(Cl)c1` . Value?
1.64
